Values were extracted from paper PMC6269873.

- assayed.system: phosphorylated MEK1 (Homo sapiens)
- Sequence (Q02750 whole entry): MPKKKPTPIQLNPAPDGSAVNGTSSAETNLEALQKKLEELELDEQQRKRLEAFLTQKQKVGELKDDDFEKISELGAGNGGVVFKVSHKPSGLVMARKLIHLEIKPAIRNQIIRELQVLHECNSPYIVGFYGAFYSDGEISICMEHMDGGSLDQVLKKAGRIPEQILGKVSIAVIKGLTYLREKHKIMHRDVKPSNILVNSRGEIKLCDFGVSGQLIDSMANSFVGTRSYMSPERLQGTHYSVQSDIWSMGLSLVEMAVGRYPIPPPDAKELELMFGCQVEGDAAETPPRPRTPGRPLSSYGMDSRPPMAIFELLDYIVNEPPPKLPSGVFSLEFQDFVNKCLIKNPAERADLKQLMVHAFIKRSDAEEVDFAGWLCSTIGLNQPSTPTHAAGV
- protocol: MEK1 binding assay (HTRF, tracer displacement)
- condition.parameters: read-out: % binding (2 µM)
property.measured: inhibition at 2 µM (%)

chemical.structure | experimental.result
CCc1c(Cc2ccccc2)c(=O)oc2cc(OC(=O)C(C)(C)C)ccc12 | 6.61
COc1ccc2cc(Cc3ccc(F)cc3)c(=O)oc2c1 | 17.6
CN(C)C(=O)Oc1ccc2cc(Cc3ccccc3)c(=O)oc2c1 | 31.6
CCc1c(Cc2ccccc2)c(=O)oc2cc(OC(C)=O)ccc12 | 88.7
Cc1c(Cc2ccccc2)c(=O)oc2cc(OS(=O)(=O)c3ccccc3)c(Cl)cc12 | 29.9
O=c1cc(CCl)c2ccc(O)cc2o1 | 33.3
CCCc1c(Cc2ccc(F)cc2)c(=O)oc2cc(OC(=O)C(C)(C)C)ccc12 | 31.6
CCCC(=O)Oc1ccc2c(CC)c(Cc3ccccc3)c(=O)oc2c1 | 45

###

- assayed.system: UniProt Q02750
- protocol: MEK1 binding assay (HTRF, tracer displacement)
- condition.parameters: read-out: % binding (20 µM)
Below: a set of entries, each annotated with reported inhibition at 20 µM.

compound | assayed.system | inhibition at 20 µM / %
CCc1c(Cc2ccc(F)cc2)c(=O)oc2cc(OC(=O)C(C)(C)C)ccc12 [Compound 59] | UniProt Q02750 | 23.4
Cc1c(Cc2ccccc2)c(=O)oc2cc(O)c(Cl)cc12 [Compound 4c] | UniProt Q02750 | 5.1
Cc1ccc(S(=O)(=O)Oc2ccc3c(C)c(Cc4ccc(F)cc4)c(=O)oc3c2)cc1 [Compound 81] | UniProt Q02750 | 9.55
CCc1c(Cc2ccc(F)cc2)c(=O)oc2cc(O)ccc12 [Compound 4g] | UniProt Q02750 | 19.6
CCCc1c(Cc2ccccc2)c(=O)oc2cc(OC(=O)N(CC)CC)ccc12 [Compound 23] | UniProt Q02750 | 46.1
CCCCC(=O)Oc1ccc2c(CCC)c(Cc3ccccc3)c(=O)oc2c1 [Compound 51] | UniProt Q02750 | 42.5
COc1ccc2cc(Cc3ccccc3)c(=O)oc2c1 [Compound 83, 3-Benzyl-7-methoxy-2H-chromen-2-one] | UniProt Q02750 | 2.93
CCCCC(=O)Oc1ccc2c(CC)c(Cc3ccccc3)c(=O)oc2c1 [Compound 50] | UniProt Q02750 | 43.2
CCc1c(Cc2ccccc2)c(=O)oc2cc(OC(=O)N(CC)CC)ccc12 [Compound 22] | UniProt Q02750 | 48.1
CCc1c(Cc2ccc(F)cc2)c(=O)oc2cc(OC(=O)N(C)C)ccc12 [Compound 18] | UniProt Q02750 | 99.4
CCCc1c(Cc2ccc(F)cc2)c(=O)oc2cc(OC(=O)C(C)(C)C)ccc12 [Compound 61] | UniProt Q02750 | 40.9
Cc1c(Cc2ccccc2)c(=O)oc2cc(O)ccc12 [Compound 4b] | UniProt Q02750 | -6.03
CCc1c(Cc2ccccc2)c(=O)oc2cc(OC(C)=O)ccc12 [Compound 29] | UniProt Q02750 | 102
CCCC(=O)Oc1ccc2c(CCC)c(Cc3ccc(F)cc3)c(=O)oc2c1 [Compound 47] | UniProt Q02750 | 70.3
CCCc1c(Cc2ccc(F)cc2)c(=O)oc2cc(OC(C)=O)ccc12 [Compound 33] | UniProt Q02750 | 72.2
Cc1c(Cc2ccccc2)c(=O)oc2cc(OC(=O)C(C)(C)C)c(Cl)cc12 [Compound 56] | UniProt Q02750 | 34.1
Cc1c(Cc2ccccc2)c(=O)oc2cc(OC(=O)c3ccccc3)c(Cl)cc12 [Compound 63] | UniProt Q02750 | 28
Cc1c(Cc2ccccc2)c(=O)oc2cc(OC(=O)c3ccccc3)ccc12 [Compound 62] | UniProt Q02750 | 31.1
CCc1c(Cc2ccccc2)c(=O)oc2cc(OC(=O)c3ccccc3)ccc12 [Compound 64] | UniProt Q02750 | 21.5
O=c1cc(CCl)c2ccc(O)cc2o1 [Compound 4i] | UniProt Q02750 | 22.4
CCCc1c(Cc2ccc(F)cc2)c(=O)oc2cc(OC(=O)CC)ccc12 [Compound 40] | UniProt Q02750 | 78.5
